Where do these numbers come from? They come from patent US20190016812A1.

- Measured on: T1, human TNFSF9 (R&D Systems; #2295-4L-025/CF) (human, UniProt P41273 71-254, limits assumed)
- T1 construct: also called TNFSF9 (ligand); TNFSF9 ligand
- Assay explanation: MSD ELISA: TNFSF9 + 1 ug/mL antibody, binding to coated TNFRSF9
Below, each of the binders is paired with its reported % inhibition of ligand receptor interaction value.
Endpoint label: % inhibition of ligand receptor interaction (%)

Binder	Quantity unit	Measured number
SC113.70 (antibody, mouse IgG2b, V domains shown, mouse IgG2b) VH: DVQLQESGPDLVKPSQSLSLTCTVTGYSITSGYTWHWIRQFPGNKLEWMGYIIYSGGTNYNPSLKSRISITRDTSKNQFFLQLNSVTPEDTATYYCASLLRPLDYWGQGTTLTVSS VL: DIVMTQAAPSVPVTPGESVSISCRSSKSLLHSNGDTFLYWFLQRPGQSPQLLIYRMSNLASGVPDRFSGSGSGTAFTLRISRVEAEDVGVYYCMQHLEYPFTFGAGTKLELK	%	46
SC113.153 (antibody, V domains shown, Murine hybridoma antibody) VH: QVQLKQSGPGLVQPSQSLSITCTVSGFSLTSYGVHWVRQSPGKGLEWLGVIWSGGSTDDNAAFISRLSISKDNSKSQVFFKMNSLQADDTAIYYCARNYYYDGRYYAMDYWGQGTSVTVSS VL: DIVLTQSPASLAVSLGQRATISCRASESVEYYGTSLMQWYQQKPGQPPKLLIYVASNVESGVPVRFSGSGSGTDFSLNIHPVEEDDIAMYFCQQSRKVPWTFGGGTKLEIK	%	-84
huSC113.57 (antibody, V domains shown, also called hSC113.57 (humanized SC113.57)) VH: QVTLKESGPVLVKPTETLTLTCTVSGFSLSTYGVHWIRQPPGKALEWLAVIWSGGTTDDNAAFISRVTISKDNSKSQVVLTMTNMDPVDTATYYCARNSYYGNLHYYTMDYWGQGTTVTVSS VL: EIVLTQSPATLSLSPGERATLSCRASESVDSYGISFLNWYQQKPGQAPRLLIYAASNQGSGIPARFSGSGSGTDFTLTISSLEPEDFAVYYCQQSKEVPWTFGGGTKVEIK	%	-38
